protocol: yeast display, Sf9 membrane polyspecificity reagent, FACS + sequencing; frameworks hold sequencing errors
outcomeMeasure: polyreactivity (PSR sort gate)

HVQLVESGGGLVQAGGSLRLSCAASGRIFYYNGMGWYRPAPGKERELVAAITPSDTSTYYAVSVKGRFTISRDNAKNTVYLQMNSLKPEDTAVYYCNADYDNHEMDYWGQGTQVTVSS : low polyreactivity
QVQLEESGGGLVQAGGSLRLICAASGGTISKYAMGWYRQAPGTEMELVAAITYSSGSTYYADSVKGRFTISRDNAKNTVYLQMNSLKPEDTAVYYCAARSGLYWWRFDYWGQGTLVTVSS : high polyreactivity
QVQLVESGGGLVQAGGSLRLSCGASGFISTYYAMGWYRQAPGKERELVAAISWNGGSTYYADSVKGRFTISRDNAKNTVYLQMNSLKPEDTAVYYCAAYLGKWRHFYSSDYDYWGQGTQVTVSS : low polyreactivity
QFQLVESGGGLLQAGGSLRLSCAASGLTFNQKAMGWYTQAPGKDRELVAAISRRGGSTYYADSVKGRFTFSRENAKNTVYLQLNSLKPEDTAVYYCNTRGKSGLWWYYYWGQGTQVTVSS : high polyreactivity

// returns reported polyreactivity (PSR sort gate) for input QVQLVESGGGLVQAGGSLRLSCAASGRIFYLNVMGWYRQAPGKERELVAAITRRDVTTYADSVKGRFTISRDNAKNTVYLQMNSLKPEDTAVYYCNAVYYNWIGFDYSGQGTQVTVSS
low polyreactivity

* * *

protocol: yeast display, Sf9 membrane polyspecificity reagent, FACS + sequencing; frameworks hold sequencing errors
outcomeMeasure: polyreactivity (PSR sort gate)

QVQLVESGGALVQAGGRLRLSCAASGLTLHRYTMGWYRQAPGKERELVAVITYGGGNTYYADSVKGRFTISRDNAKNTVYLQMNSLKPEDNAVYYCAARYPPFYWYDYWGQGTQVSVSS : low polyreactivity
QVQLVESGGGLVQAAGSLLLSCAASGSTFYYYAMGWYRQAPRKDRELVAAISRGGGSTYYADSVKGRFTISRDNAKTTVYLQMNSLKPQDTAVYYCYVSRFDSWGQGTKVTVSS : high polyreactivity
QVQLVESGGGLVQAGGSLRLSCAASAFILQRNAMGWYRQAHGKERELVAAISSRGGSTYYADSVKGRFTISRDNAKNTVYLQMNSLKPEDTAVYYCNRRSRAHGYGSQYDYWGQGTQVTVSS : low polyreactivity
QVQLVESGGGLVQAGGSLRLSCAASGRIFKRNAMGWYRQAPGKERELVAAISWRGGSTYYADSVKGRFTISRDNAKNTVYLQMNSLKPEDTAVYYCNVGYGGSSDGGYDYWGQGTQVTVSS : high polyreactivity
QVQLVESGGGLVQAGGSLRLSCAASGRIFGKYAMGWYRQAPGKERELVAAITRRGGSTYYADSVKGRFTISRDNAKNTVYLQMNSLKPEDTAVYYCNAALTGYRVSPTRHRYDYWGQGTQVTVSS : high polyreactivity

// returns reported polyreactivity (PSR sort gate) for input QVQLVESGGGLVQAGGSLRLICAASGIIFTYNAMGWYRQAPGKERELVAAINGGSSTNYADSVKGRFTISRDNAKNTVYLQMNSLKPEDTAVYDCAADVIPDGVKKPRMYYWGQGTQVTVSS
low polyreactivity

What do you have for QVQLVESGGGLVQAGGSLRLSCAASGRTFYGYAMGWYRQAPGKERELVASISRDGYTNYADSVKGRFTISRDNANNTVYLQMTSLKPEDTAVYYCAADFWYYRYPIYYYSYDYWGQGTQVTVSS ?
low polyreactivity

What do you have for QVQLVESGGGLVQAGGSLSLSCAASGNIVPSYVMGWYRQAPGKERELVAAITWNGGSTYYADSVKGRFTISRDNAKNTVYLQMNSLKPEDTAVYDCATSGPRLLRYYSSSSPSYDYWGQGTQVTVSS ?
low polyreactivity

What do you have for QVQLVESGGGLVQAGGSLRLSCAASGSIFLDNAKGWYRQAPGKERELVSAISSGGNTNYADSVKGRFTISRDNAKNTVSLQMNSLKPEDTAVYYCAADPTKWHYYVPRYYYWGQGTQVTVSS ?
low polyreactivity

What do you have for QGQLVESGGGLVQAGGSIRLSCAAYGSTFNVNAMGLYRQAPGKERELVAAISRSCVSTYYADSVKWRFTISRDNAKNTVYLQMNSLKPEDTAVYYCNAYPGNWRGYRMDYWGQGNQVTVSS ?
high polyreactivity

What do you have for QVHLVDSGGGLVQEGGSLRLSCAASGFISPKYRMGWYRQAPRKERELVAANTTSDGSTSYADSVKGRFRISRDNAKTTVYLQMISLKPEDSAVYYCAAGYESWRSWVRRYLRMDYWGQGTQVTLSS ?
high polyreactivity

What do you have for QVQLVESGGGLVQAGGSLRLSCAASGGIFDYNAMGWYRQAPGKERELVAAITNGGSTNYADSVKGRFTISRDNAKNSVYLQMNSLKPEDTAVYYCATGYFYDYWGQGTQVTVSS ?
low polyreactivity

What do you have for QVHLVESGGGLVQAGGSLRLSCAASGSTFTYYAMGWYRQAPGKERELVAAITGRGGRTYYADSVKGRFTISRDNAKNTVYLQMNSLKPEDTAVYYCARYPSSDTYWTKYDYWGQGTQVTVSS ?
high polyreactivity

What do you have for QVQLVESGGGLVQAGGSLRLSCAASGSTFVRNAMGWYRQAPGKERELVAGISTGDNTYYADSVKGRFTISRDNAKNTVYLQMNSLKPEDSAVYYCAARGLPSNYYYYVHGYIMDYWGQGTQVTVSS ?
low polyreactivity

What do you have for QVQLVESGGGLVQAGGSLRLSCAASGFTFYRYVMGWYRQAPGKERELVAAITGGGRTYYADSVKGRFTISRDNAKNTVYLQMNSLKPEDTAVYYCNKAVPAWGLYDYWGQGTQVTVSS ?
low polyreactivity
